All values here come from patent US6544987B2.

- STUDY_TARGET: UniProt P62942
- TEST: Affinity for FKBP-12 (Ki), succinyl-Ala-Leu-Pro-Phe-pNA chymotrypsin-coupled assay
- Format: biochemical
- CONDITION_INFO: Table 2; read-out: FKBP12 Kiapps
pKi: −log10 of the molar value.
METRIC: pKi

Solved entries:
[[record]]
molecule = "COc1ccc(N(C)S(=O)(=O)N2CCCC[C@H]2C(=O)OCCCCc2ccccc2)cc1N [Compound 55]"
study_target = "UniProt P62942"
observed_value = 4.88

[[record]]
molecule = "O=C(OCc1ccccc1)[C@@H]1CCCN1S(=O)(=O)Nc1cccnc1 [Compound 115]"
study_target = "UniProt P62942"
observed_value = 4.69

[[record]]
molecule = "O=C(OC(COCc1ccccc1)COCc1ccccc1)[C@@H]1CCCCN1S(=O)(=O)Nc1cnc(N2CCOCC2)c(C(F)(F)F)c1 [Compound 108]"
study_target = "UniProt P62942"
observed_value = 6.90

[[record]]
molecule = "CN(c1ccccc1)S(=O)(=O)N1CCCC[C@H]1C(=O)OCCCCc1ccccc1 [Compound 44]"
study_target = "UniProt P62942"
observed_value = 4.92


I = COC(=O)[C@@H]1CCCCN1S(=O)(=O)Nc1cc(OC)c(OC)c(OC)c1 [Compound 90]
II = O=C(OCCCCc1ccccc1)[C@@H]1CCCCN1S(=O)(=O)Nc1cccnc1 [Compound 97]
III = COc1cc(NS(=O)(=O)N2CCCC[C@H]2C(=O)OC(COCc2ccccc2)COCc2ccccc2)cc(OC)c1OC [Compound 102]
IV = O=C(OCc1ccccc1)[C@@H]1CCCN1S(=O)(=O)Oc1ccccc1 [Compound 15]
List by increasing pKi. # output: labels, in the requested order
IV, I, III, II

###

- STUDY_TARGET: FKBP12 (Homo sapiens)
- TEST: Affinity for FKBP-12 (Ki), succinyl-Ala-Leu-Pro-Phe-pNA chymotrypsin-coupled assay
- Assay type: biochemical
- CONDITION_INFO: Table 2; read-out: FKBP12 Kiapps
pKi: −log10 of the molar value.
METRIC: pKi

[[record]]
molecule = "O=C(OC(COCc1ccccc1)COCc1ccccc1)[C@@H]1CCCCN1S(=O)(=O)Nc1ccc(N2CCOCC2)nc1"
observed_value = 6.94

[[record]]
molecule = "NS(=O)(=O)N1CCCC[C@H]1C(=O)OCc1ccccc1"
observed_value = 3.91

[[record]]
molecule = "COc1cc(NS(=O)(=O)N2CCCC[C@H]2C(=O)NCCCCc2ccccc2)cc(OC)c1OC"
observed_value = 6.83


P = O=C(OCc1ccccc1)[C@@H]1CCCN1S(=O)(=O)Nc1ccccc1
Q = O=C(OCCCCc1ccccc1)[C@@H]1CCCCN1S(=O)(=O)Nc1ccc(Cl)nc1
In the pair P and Q , the larger recorded pKi belongs to which? Respond with the label that goes with your answer.
Q

###

- STUDY_TARGET: FKBP12 (Homo sapiens, UniProt P62942)
- Sequence (P62942 whole entry, species assumed): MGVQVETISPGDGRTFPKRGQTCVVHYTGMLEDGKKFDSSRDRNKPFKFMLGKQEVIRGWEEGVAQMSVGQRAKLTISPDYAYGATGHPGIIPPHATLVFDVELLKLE
- TEST: Affinity for FKBP-12 (Ki), succinyl-Ala-Leu-Pro-Phe-pNA chymotrypsin-coupled assay
- Assay type: biochemical
- CONDITION_INFO: Table 2; read-out: FKBP12 Kiapps
METRIC: Ki (nM)

[[record]]
molecule = "COc1cc(NS(=O)(=O)N2CCC[C@H]2C(=O)OCc2ccccc2)cc(OC)c1OC [Compound 29]"
metric = "Ki"
observed_value = 34400

[[record]]
molecule = "CCC(C)(C)NS(=O)(=O)N1CCC[C@H]1C(=O)OCc1ccccc1 [Compound 27]"
metric = "Ki"
observed_value = 2800

[[record]]
molecule = "COc1cc(NS(=O)(=O)N2CCCC[C@H]2C(=O)NCCCc2cccnc2)cc(OC)c1OC [Compound 93]"
metric = "Ki"
observed_value = 200


1 = NS(=O)(=O)N1CCCC[C@H]1C(=O)OCCCCc1ccccc1 [Compound 41]
2 = COc1cc(N2C(=O)[C@@H]3CCCCN3S2(=O)=O)cc(OC)c1OC [Compound 40]
Which record would sort first by descending Ki, 1 or 2 ? Answer format: the label of the selected item.
2
